# System: Plasmodium falciparum
# Test summary: Resistance index, ratio of IC90 for CQ-resistant, MFQ-susceptible Plasmodium falciparum W2 clone Indochina 1 isolate to IC90 for CQ, MFQ-susceptible Plasmodium falciparum D6 clone Sierra 1/UNC isolate
# Type: functional
Property measured: Ratio
Answer field: number only, no words.

// field: Ratio; key: CC(=O)N[C@@H]1CC[C@@]2(C)[C@@H](C1)C[C@@H](OC(C)=O)[C@@H]1[C@@H]2C[C@H](OC(C)=O)[C@]2(C)[C@@H]([C@H](C)CCCNCCNc3ccnc4cc(Cl)ccc34)CC[C@@H]12 ; value = 1.96

// field: Ratio; key: CC(=O)O[C@H]1C[C@H]2[C@@H]([C@H](OC(C)=O)C[C@@H]3C[C@H](NC(=O)OC(C)(C)C)CC[C@@]32C)[C@@H]2CC[C@H]([C@H](C)CCCN(C)CCNc3ccnc4cc(Cl)ccc34)[C@@]12C ; value = 1.07

// field: Ratio; key: CC(=O)O[C@H]1C[C@H]2[C@@H]([C@H](OC(C)=O)C[C@@H]3C[C@H](NS(C)(=O)=O)CC[C@@]32C)[C@@H]2CC[C@H]([C@H](C)CCCN(C)CCNc3ccnc4cc(Cl)ccc34)[C@@]12C ; value = 1.65

// field: Ratio; key: CC(=O)O[C@H]1C[C@H]2[C@@H]([C@H](OC(C)=O)C[C@@H]3C[C@H](NS(C)(=O)=O)CC[C@@]32C)[C@@H]2CC[C@H]([C@H](C)CCCNCCCNc3ccnc4cc(Cl)ccc34)[C@@]12C ; value = 1.29

* * *

# Assayed target: Botulinum neurotoxin type A (Clostridium botulinum)
# Test summary: Inhibition of Clostridium botulinum recombinant BoNT/A light chain using N-terminal acetylated, C-terminal aminated SNAP-25 (187-203) as substrate at 20 uM by reverse-phase HPLC analysis
Record form. Attribute: inhibition. Fill in for each entry.
Provide only the numeric value, understood in %.

// field: inhibition; key: CC(=O)O[C@@H]1CC[C@@]2(C)[C@@H](C1)C[C@@H](OC(C)=O)[C@@H]1[C@@H]2C[C@H](OC(C)=O)[C@]2(C)[C@@H]([C@H](C)CCCNCCCCNc3ccnc4cc(Cl)ccc34)CC[C@@H]12 ; value = 69

// field: inhibition; key: CC(=O)O[C@H]1C[C@H]2[C@@H]([C@H](OC(C)=O)C[C@@H]3CC(=O)CC[C@@]32C)[C@@H]2CC[C@H]([C@H](C)CCCNCCNc3ccnc4cc(Cl)ccc34)[C@@]12C ; value = 67.1

// field: inhibition; key: CC(=O)O[C@H]1C[C@H]2[C@@H]([C@H](OC(C)=O)C[C@@H]3C[C@H](NCCCCCCNc4ccnc5cc(Cl)ccc45)CC[C@@]32C)[C@@H]2CC[C@H]([C@H](C)CCCNCCCCCCNc3ccnc4cc(Cl)ccc34)[C@@]12C ; value = 95.5

// field: inhibition; key: CC(=O)O[C@H]1C[C@H]2[C@@H]([C@H](OC(C)=O)C[C@@H]3C[C@H](O)CC[C@@]32C)[C@@H]2CC[C@H]([C@H](C)CCCNCCNc3ccnc4cc(Cl)ccc34)[C@@]12C ; value = 69.4

// field: inhibition; key: CC(=O)O[C@H]1C[C@H]2[C@@H]([C@H](OC(C)=O)C[C@@H]3CC(NCCNc4ccnc5cc(Cl)ccc45)CC[C@@]32C)[C@@H]2CC[C@H]([C@H](C)CCCNCCNc3ccnc4cc(Cl)ccc34)[C@@]12C (stereo partly specified) ; value = 96.5

// field: inhibition; key: CC(=O)O[C@H]1C[C@H]2[C@@H]([C@H](OC(C)=O)C[C@@H]3C[C@H](NC(=O)OC(C)(C)C)CC[C@@]32C)[C@@H]2CC[C@H]([C@H](C)CCCNCCNc3ccnc4cc(Cl)ccc34)[C@@]12C ; value = 67.4

// field: inhibition; key: CC(=O)O[C@H]1C[C@H]2[C@@H]([C@H](OC(C)=O)C[C@@H]3C[C@H](N)CC[C@@]32C)[C@@H]2CC[C@H]([C@H](C)CCCN(C)CCNc3ccnc4cc(Cl)ccc34)[C@@]12C ; value = 89.5

// field: inhibition; key: CC(=O)O[C@H]1C[C@H]2[C@@H]([C@H](OC(C)=O)C[C@@H]3C[C@H](NC(=O)OC(C)(C)C)CC[C@@]32C)[C@@H]2CC[C@H]([C@H](C)CCCNCCCNc3ccnc4cc(Cl)ccc34)[C@@]12C ; value = 74.9

// field: inhibition; key: CC(=O)O[C@@H]1CC[C@@]2(C)[C@@H](C1)C[C@@H](OC(C)=O)[C@@H]1[C@@H]2C[C@H](OC(C)=O)[C@]2(C)[C@@H]([C@H](C)CCCNCCNc3ccnc4cc(Cl)ccc34)CC[C@@H]12 ; value = 74

// field: inhibition; key: CC(=O)O[C@H]1C[C@H]2[C@@H]([C@H](OC(C)=O)C[C@@H]3C[C@H](N(C)C)CC[C@@]32C)[C@@H]2CC[C@H]([C@H](C)CCCNCCNc3ccnc4cc(Cl)ccc34)[C@@]12C ; value = 93.5

// field: inhibition; key: CC(=O)O[C@H]1C[C@H]2[C@@H]([C@H](OC(C)=O)C[C@@H]3C[C@H](NS(C)(=O)=O)CC[C@@]32C)[C@@H]2CC[C@H]([C@H](C)CCCN(C)CCNc3ccnc4cc(Cl)ccc34)[C@@]12C ; value = 33.8

// field: inhibition; key: CC(=O)O[C@H]1C[C@H]2[C@@H]([C@H](OC(C)=O)C[C@@H]3C[C@H](NS(C)(=O)=O)CC[C@@]32C)[C@@H]2CC[C@H]([C@H](C)CCCNCCNc3ccnc4cc(Cl)ccc34)[C@@]12C ; value = 74.4

// field: inhibition; key: CC(=O)O[C@H]1C[C@H]2[C@@H]([C@H](OC(C)=O)C[C@@H]3C[C@@H](NCCCCCCNc4ccnc5cc(Cl)ccc45)CC[C@@]32C)[C@@H]2CC[C@H]([C@H](C)CCCNCCCCCCNc3ccnc4cc(Cl)ccc34)[C@@]12C ; value = 89.6

// field: inhibition; key: CC(=O)O[C@H]1C[C@H]2[C@@H]([C@H](OC(C)=O)C[C@@H]3CC(=O)CC[C@@]32C)[C@@H]2CC[C@H]([C@H](C)CCCNCCCNc3ccnc4cc(Cl)ccc34)[C@@]12C ; value = 72.9

// field: inhibition; key: CC(=O)O[C@H]1C[C@H]2[C@@H]([C@H](OC(C)=O)C[C@@H]3C[C@H](N)CC[C@@]32C)[C@@H]2CC[C@H]([C@H](C)CCCN(CCCNc3ccnc4cc(Cl)ccc34)CCC[C@@H](C)[C@H]3CC[C@H]4[C@@H]5[C@H](OC(C)=O)C[C@@H]6C[C@H](N)CC[C@]6(C)[C@H]5C[C@H](OC(C)=O)[C@]34C)[C@@]12C ; value = 92.8

// field: inhibition; key: CC(=O)O[C@H]1C[C@H]2[C@@H]([C@H](OC(C)=O)C[C@@H]3C[C@H](NC(=O)OC(C)(C)C)CC[C@@]32C)[C@@H]2CC[C@H]([C@H](C)CCCN(CCCNc3ccnc4cc(Cl)ccc34)CCC[C@@H](C)[C@H]3CC[C@H]4[C@@H]5[C@H](OC(C)=O)C[C@@H]6C[C@H](NC(=O)OC(C)(C)C)CC[C@]6(C)[C@H]5C[C@H](OC(C)=O)[C@]34C)[C@@]12C ; value = 6.42

* * *

# Test summary: Selectivity index, ratio of IC50 for human HepG2 cells to IC50 for CQ-resistant, MFQ-susceptible Plasmodium falciparum W2 clone Indochina 1 isolate
# Type: toxicity, cell-based
# Details: read-out: Ratio IC50
Record form. Attribute: selectivity ratio. Fill in for each entry.
Answer field: number only, no words.

// field: selectivity ratio; key: CC(=O)O[C@@H]1CC[C@@]2(C)[C@@H](C1)C[C@@H](OC(C)=O)[C@@H]1[C@@H]2C[C@H](OC(C)=O)[C@]2(C)[C@@H]([C@H](C)CCCNCCCNc3ccnc4cc(Cl)ccc34)CC[C@@H]12 ; value = 104

// field: selectivity ratio; key: CC(=O)O[C@H]1C[C@H]2[C@@H]([C@H](OC(C)=O)C[C@@H]3C[C@H](N(C)C)CC[C@@]32C)[C@@H]2CC[C@H]([C@H](C)CCCNCCNc3ccnc4cc(Cl)ccc34)[C@@]12C ; value = 714

* * *

# Assayed target: Botulinum neurotoxin type A (Clostridium botulinum, UniProt P0DPI0)
# Sequence (P0DPI0 2-448 limits assumed): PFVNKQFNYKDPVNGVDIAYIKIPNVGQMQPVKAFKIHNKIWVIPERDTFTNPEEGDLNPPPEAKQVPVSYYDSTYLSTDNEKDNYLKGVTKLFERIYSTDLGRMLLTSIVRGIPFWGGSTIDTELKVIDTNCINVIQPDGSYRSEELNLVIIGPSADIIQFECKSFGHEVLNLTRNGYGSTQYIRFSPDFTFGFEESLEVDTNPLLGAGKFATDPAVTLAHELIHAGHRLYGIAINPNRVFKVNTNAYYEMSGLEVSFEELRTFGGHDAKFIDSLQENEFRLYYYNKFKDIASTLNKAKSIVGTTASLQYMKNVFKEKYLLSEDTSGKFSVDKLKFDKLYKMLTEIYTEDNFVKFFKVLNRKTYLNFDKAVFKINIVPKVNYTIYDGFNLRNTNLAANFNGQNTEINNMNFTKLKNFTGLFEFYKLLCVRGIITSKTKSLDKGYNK
# Test summary: Inhibition of Clostridium botulinum recombinant BoNT/A light chain using N-terminal acetylated, C-terminal aminated SNAP-25 (187-203) as substrate by reverse-phase HPLC analysis
Quick rule for you: Ki under 0.3 µM gets fulfilled, anything else gets not fulfilled.

Quick check: does CC(=O)O[C@H]1C[C@H]2[C@@H]([C@H](OC(C)=O)C[C@@H]3CC(NCCNc4ccnc5cc(Cl)ccc45)CC[C@@]32C)[C@@H]2CC[C@H]([C@H](C)CCCNCCNc3ccnc4cc(Cl)ccc34)[C@@]12C (some centres not stated) have Ki under 0.3 µM?
not fulfilled

Quick check: does CC(=O)O[C@H]1C[C@H]2[C@@H]([C@H](OC(C)=O)C[C@@H]3C[C@@H](NCCCCCCNc4ccnc5cc(Cl)ccc45)CC[C@@]32C)[C@@H]2CC[C@H]([C@H](C)CCCNCCCCCCNc3ccnc4cc(Cl)ccc34)[C@@]12C have Ki under 0.3 µM?
not fulfilled

Quick check: does CC(=O)O[C@H]1C[C@H]2[C@@H]([C@H](OC(C)=O)C[C@@H]3CC(NCCCNc4ccnc5cc(Cl)ccc45)CC[C@@]32C)[C@@H]2CC[C@H]([C@H](C)CCCNCCCNc3ccnc4cc(Cl)ccc34)[C@@]12C (mixture of isomers) have Ki under 0.3 µM?
fulfilled

Quick check: does CC(=O)O[C@H]1C[C@H]2[C@@H]([C@H](OC(C)=O)C[C@@H]3C[C@@H](NCCCCCCNc4ccnc5cc(Cl)ccc45)CC[C@@]32C)[C@@H]2CC[C@H]([C@H](C)CCCNCCCCNc3ccnc4cc(Cl)ccc34)[C@@]12C have Ki under 0.3 µM?
fulfilled

Quick check: does CC(=O)O[C@H]1C[C@H]2[C@@H]([C@H](OC(C)=O)C[C@@H]3C[C@H](N)CC[C@@]32C)[C@@H]2CC[C@H]([C@H](C)CCCNCCCNc3ccnc4cc(Cl)ccc34)[C@@]12C have Ki under 0.3 µM?
not fulfilled

Quick check: does CC(=O)O[C@@H]1CC[C@@]2(C)[C@@H](C1)C[C@@H](OC(C)=O)[C@@H]1[C@@H]2C[C@H](OC(C)=O)[C@]2(C)[C@@H]([C@H](C)CCCN(C)CCNc3ccnc4cc(Cl)ccc34)CC[C@@H]12 have Ki under 0.3 µM?
not fulfilled
